Tested on: Bel-7402
protocol_text: Cytotoxic activity against human Bel7402 cells incubated for 48 hrs by MTT assay
Assay type: functional, cell-based
reported_conditions: Bel-7402, 48 h
Please respond with reported IC50 for every item in the list.
Numbers only, in nM.

Provide IC50 for all items below, preserving their order.
1. CC1=C(OC(=O)N2CCN(C)CC2)C(=O)C=C2C1=CC=C1[C@@]2(C)CC[C@@]2(C)[C@@H]3C[C@](C)(C(=O)OCc4ccccc4)CC[C@]3(C)CC[C@]12C
2. CCCCOC(=O)[C@]1(C)CC[C@]2(C)CC[C@]3(C)C4=CC=C5C(=CC(=O)C(O)=C5C)[C@]4(C)CC[C@@]3(C)[C@@H]2C1
3. CC1=C(O)C(=O)C=C2C1=CC=C1[C@@]2(C)CC[C@@]2(C)[C@@H]3C[C@](C)(C(=O)OCc4cccc(Cl)c4)CC[C@]3(C)CC[C@]12C

// result
1. 1020
2. 1010
3. 370

###

Tested on: HepG2
protocol_text: Cytotoxic activity against human HepG2 cells incubated for 48 hrs by MTT assay
Format: functional, cell-based
reported_conditions: HepG2, 48 h
observation_type: pIC50
Numbers only, as −log10 of the molar value.

Sample answers from the record:
compound	study_system	measurement
CC1=C(OC(=O)N2CCCCC2)C(=O)C=C2C1=CC=C1[C@@]2(C)CC[C@@]2(C)[C@@H]3C[C@](C)(C(=O)OCc4ccccc4)CC[C@]3(C)CC[C@]12C	HepG2	5.13
CC1=C(OC(=O)N2CCCCC2C)C(=O)C=C2C1=CC=C1[C@@]2(C)CC[C@@]2(C)[C@@H]3C[C@](C)(C(=O)OCc4ccccc4)CC[C@]3(C)CC[C@]12C (stereo partly specified)	HepG2	5.09
CCOC(=O)COC(=O)[C@]1(C)CC[C@]2(C)CC[C@]3(C)C4=CC=C5C(=CC(=O)C(O)=C5C)[C@]4(C)CC[C@@]3(C)[C@@H]2C1	HepG2	6.12

Provide pIC50 for all items below, preserving their order.
1. CC1=C(OC(=O)N2CCN(Cc3ccccc3)CC2)C(=O)C=C2C1=CC=C1[C@@]2(C)CC[C@@]2(C)[C@@H]3C[C@](C)(C(=O)OCc4ccccc4)CC[C@]3(C)CC[C@]12C
2. CC1=C(O)C(=O)C=C2C1=CC=C1[C@@]2(C)CC[C@@]2(C)[C@@H]3C[C@](C)(C(=O)OCOCc4ccccc4)CC[C@]3(C)CC[C@]12C
3. CC1=C(O)C(=O)C=C2C1=CC=C1[C@@]2(C)CC[C@@]2(C)[C@@H]3C[C@](C)(C(=O)OCc4ccc(Br)cc4)CC[C@]3(C)CC[C@]12C

// result
5.00
6.43
6.18

###

Tested on: Bel-7402
protocol_text: Cytotoxic activity against human Bel7402 cells incubated for 48 hrs by MTT assay
Assay type: functional, cell-based
reported_conditions: Bel-7402, 48 h
pIC50: −log10 of the molar value.
Would you please tag the item fulfilled when its pIC50 is 6 or above, and not fulfilled when it is below?

Examples from the recorded data:
compound	class_assignment
CC1=C(O)C(=O)C=C2C1=CC=C1[C@@]2(C)CC[C@@]2(C)[C@@H]3C[C@](C)(C(=O)OCc4ccc(Br)cc4)CC[C@]3(C)CC[C@]12C	fulfilled
CC1=C(O)C(=O)C=C2C1=CC=C1[C@@]2(C)CC[C@@]2(C)[C@@H]3C[C@](C)(C(=O)OCc4ccc(C)cc4)CC[C@]3(C)CC[C@]12C	fulfilled
CC1=C(OC(=O)N2CCCCC2C)C(=O)C=C2C1=CC=C1[C@@]2(C)CC[C@@]2(C)[C@@H]3C[C@](C)(C(=O)OCc4ccccc4)CC[C@]3(C)CC[C@]12C (some centres not stated)	not fulfilled
CC(=O)N1CCN(C(=O)OC2=C(C)C3=CC=C4[C@@](C)(CC[C@@]5(C)[C@@H]6C[C@](C)(C(=O)OCc7ccccc7)CC[C@]6(C)CC[C@]45C)C3=CC2=O)CC1	not fulfilled
CC1=C(O)C(=O)C=C2C1=CC=C1[C@@]2(C)CC[C@@]2(C)[C@@H]3C[C@](C)(C(=O)OCc4ccc([N+](=O)[O-])cc4)CC[C@]3(C)CC[C@]12C	fulfilled
CC1=C(O)C(=O)C=C2C1=CC=C1[C@@]2(C)CC[C@@]2(C)[C@@H]3C[C@](C)(C(=O)OCc4ccccc4)CC[C@]3(C)CC[C@]12C	fulfilled
CCCOC(=O)[C@]1(C)CC[C@]2(C)CC[C@]3(C)C4=CC=C5C(=CC(=O)C(O)=C5C)[C@]4(C)CC[C@@]3(C)[C@@H]2C1	fulfilled
CC1=C(O)C(=O)C=C2C1=CC=C1[C@@]2(C)CC[C@@]2(C)[C@@H]3C[C@](C)(C(=O)OC(C)C)CC[C@]3(C)CC[C@]12C	fulfilled

// query Is pIC50 for CCN1CCN(C(=O)OC2=C(C)C3=CC=C4[C@@](C)(CC[C@@]5(C)[C@@H]6C[C@](C)(C(=O)OCc7ccccc7)CC[C@]6(C)CC[C@]45C)C3=CC2=O)CC1 at or above 6?
// result not fulfilled
